The measurements presented in this section are drawn from patent US12577248B2.

Target: SYK kinase (Homo sapiens)
Test: SYK kinase assay (HTRF KinEASE-TK)
Format: biochemical
Conditions: class symbols, read-out: Syk inhibition IC50
Readout label: IC50

>>> print(df.to_string())
                    structure_smiles_string  recorded_measurement
0  COc1cc(Nc2nc(-c3ccc4cc[nH]c4c3)cn3ncnc23)ccc1N1CCN(C2COC2)CC1               ≤ 50 nM
1  COc1cc(Nc2nc(-c3ccc4cc[nH]c4c3)cn3ncnc23)ccc1N1CCOCC1               ≤ 50 nM

Could you report IC50 for every entry in the following list?
1. COc1cc(Nc2nc(-c3cnc4c(c3)OCC(=O)N4)cn3ncnc23)ccc1N1CCOCC1
2. COCCN1CCN(c2ccc(Nc3nc(-c4ccc5cn[nH]c5c4)cn4ncnc34)cc2OC)CC1
3. NC(=O)c1ccc(-c2cn3ncnc3c(Nc3ccc(N4CCOCC4)cc3)n2)cc1
4. O=C1COc2cc(-c3cn4ncnc4c(Nc4ccc5c(c4)OC(F)(F)O5)n3)cnc2N1
5. COc1cc(Nc2nc(-c3ccc4cn[nH]c4c3)cn3ncnc23)ccc1N1CC2(COC2)C1
6. COc1cc(Nc2nc(-c3ccc4c(C)n[nH]c4c3)cn3cnnc23)ccc1N1CCOCC1
7. CC1(C)Oc2cc(-c3cn4ncnc4c(Nc4ccc(N5CCOCC5)cc4)n3)cnc2NC1=O

output:
1: 50 to 500 nM; 2: ≤ 50 nM; 3: 50 to 500 nM; 4: > 5000 nM; 5: 50 to 500 nM; 6: 500 to 5000 nM; 7: 50 to 500 nM

----------
Experiment: In vivo pharmacokinetic analysis, single dose, ICR mice
Conditions: mouse, male, plasma, PO Administration (10 mg/kg), single dose
Readout label: half-life
Kindly write the number and append the unit.

Answered cases to consult:
>>> print(df.to_string())
                    structure_smiles_string  recorded_measurement
0  COc1cc(Nc2nc(-c3ccc4cn[nH]c4c3)cn3ncnc23)ccc1N1CCN(C2COC2)CC1                0.78 h
1  COc1cc(Nc2nc(-c3ccc4cn[nH]c4c3)cn3ncnc23)ccc1N1CCC(C)(O)CC1                0.48 h

Could you report half-life for every entry in the following list?
1. c1nc2c(Nc3ccc(N4CCN(C5COC5)CC4)cc3)nc(-c3ccc4cn[nH]c4c3)cn2n1
2. c1nc2c(Nc3ccc(N4CCOCC4)cc3)nc(-c3ccc4cc[nH]c4c3)cn2n1
3. COc1cc(Nc2nc(-c3ccc4cc[nH]c4c3)cn3ncnc23)ccc1N1CCN(C2COC2)CC1
4. COc1cc(Nc2nc(-c3ccc4cc[nH]c4c3)cn3ncnc23)ccc1N1CCOCC1
5. COc1cc(Nc2nc(-c3ccc4cn[nH]c4c3)cn3ncnc23)ccc1N1CCOCC1
6. c1nc2c(Nc3ccc(N4CCN(C5COC5)CC4)cc3)nc(-c3ccc4cc[nH]c4c3)cn2n1

output:
1: 4.41 h; 2: 1.67 h; 3: 1.49 h; 4: 2.8 h; 5: 0.9 h; 6: 3.27 h

----------
Assay: In vivo pharmacokinetic analysis, single dose, ICR mice
Conditions: mouse, male, plasma, PO Administration (10 mg/kg), single dose
Readout label: AUC(0-t) (ng·h/mL)
Give bare numbers, in ng·h/mL.

Could you report AUC(0-t) for every entry in the following list?
1. COc1cc(Nc2nc(-c3ccc4cc[nH]c4c3)cn3ncnc23)ccc1N1CCN(C2COC2)CC1
2. c1nc2c(Nc3ccc(N4CCOCC4)cc3)nc(-c3ccc4cc[nH]c4c3)cn2n1
3. COc1cc(Nc2nc(-c3ccc4cn[nH]c4c3)cn3ncnc23)ccc1N1CCOCC1
4. c1nc2c(Nc3ccc(N4CCN(C5COC5)CC4)cc3)nc(-c3ccc4cn[nH]c4c3)cn2n1

output:
1: 895; 2: 28500; 3: 381; 4: 7330
